protocolDetails: Cytotoxicity test (MTT, three days)
Type: cell-based
settings: mouse, l1210 cells, final concentration 5 μM, read-out: Survival rate
Overview of recorded viability at 72 h, 5 µM for various compounds
valueType: viability at 72 h, 5 µM

Cc1cc(-c2nnn(Cc3ccc(N(C)C)cc3)n2)ccc1OC(=O)C(C)(C)C
105%
CC(C)(C)C(=O)Oc1ccc(-c2nnn(C(C(=O)O)c3ccccc3)n2)cc1 (stereo not drawn)
105%
CC(C)Cn1nnc(-c2ccc(OC(=O)C(C)(C)C)cc2)n1
106%

---

Overview of recorded viability at 72 h, 1 µM for various molecules
protocolDetails: Cytotoxicity test (MTT, three days)
Type: cell-based
settings: mouse, l1210 cells, final concentration 1 μM, read-out: Survival rate
valueType: viability at 72 h, 1 µM (%)

CN(C)c1ccc(Cn2nnc(-c3ccc(OC(=O)C(C)(C)C)c(N(C)C)c3)n2)cc1 [Example 7]
97
CC(C)(C)C(=O)Oc1ccc(-c2nnn(Cc3ccccc3C(=O)NCC(=O)O)n2)cc1 [Example 63]
105
CC(=O)O.CC(C)(C)C(=O)Oc1ccc(-c2nnn(CCNC(=O)c3ccc(NC(=N)N)cc3)n2)cc1 [Example 95, Acetate]
103

---

Overview of recorded viability at 72 h, 1 µM for various compounds
protocolDetails: Cytotoxicity test (MTT, three days)
Type: cell-based
settings: mouse, l1210 cells, final concentration 1 μM, read-out: Survival rate
valueType: viability at 72 h, 1 µM

CC(C)(C)C(=O)Oc1ccc(-c2nnn(Cc3ccncc3)n2)cc1
95.2%
COc1cc(-c2nnn(Cc3ccc(N(C)C)cc3)n2)ccc1OC(=O)C(C)(C)C
99.4%
COc1ccc(COCCCCn2nnc(-c3ccccc3OC(=O)C(C)(C)C)n2)cc1
102%

---

targetSystem: human sputum elastase (Homo sapiens)
Sequence (P08246 30-247 limits assumed): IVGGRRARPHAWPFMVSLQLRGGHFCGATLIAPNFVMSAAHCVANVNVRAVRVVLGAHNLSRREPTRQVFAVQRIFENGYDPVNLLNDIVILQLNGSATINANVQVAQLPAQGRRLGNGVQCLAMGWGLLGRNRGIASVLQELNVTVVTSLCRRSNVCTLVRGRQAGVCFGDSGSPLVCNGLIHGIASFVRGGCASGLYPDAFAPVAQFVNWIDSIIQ
protocolDetails: Inhibitory effect on elastase (human sputum), spectrophotometric assay with MeOSuc-Ala-Ala-Pro-Val-pNA
Assay type: biochemical
settings: S: human sputum elastase; pH 8.0, 37° C.; read-out: IC50
Overview of recorded IC50 for various compounds
valueType: IC50 (µM)

CC(C)c1ccc(Cn2nnnc2-c2ccc(OC(=O)C(C)(C)C)cc2)cc1
0.14
CC(=O)c1ccc(Cn2nnc(-c3ccc(OC(=O)C(C)(C)C)cc3)n2)cc1
0.1
CC(C)(C)C(=O)Oc1ccc(-c2nnn(Cc3cccc(OCC(=O)O)c3)n2)cc1
0.092
CC(C)(C)C(=O)Oc1ccc(-c2nnn(Cc3ccccc3C(=O)O)n2)cc1
0.35
CNc1ccc(Cn2nnc(-c3ccc(OC(=O)C(C)(C)C)cc3)n2)cc1
0.11
CC(C)(C)OC(=O)COc1ccc(Cn2nnc(-c3ccc(OC(=O)C(C)(C)C)cc3)n2)cc1
0.38
CC(C)(C)C(=O)Oc1ccc(-c2nnn(Cc3ccc(N4CCCC4)cc3)n2)cc1
1.7
CC(C)(C)OC(=O)COc1cccc(Cn2nnc(-c3ccc(OC(=O)C(C)(C)C)cc3)n2)c1
0.1
CC(C)(C)C(=O)Oc1ccc(-c2nnn(Cc3ccncc3)n2)cc1
0.014
CCCN(C)c1ccc(Cn2nnc(-c3ccc(OC(=O)C(C)(C)C)cc3)n2)cc1
0.15
CC(C)(C)C(=O)Oc1ccc(-c2nnn(Cc3ccc(OCC(=O)O)cc3)n2)cc1
0.084
Cc1cc(-c2nnn(Cc3ccc(N(C)C)cc3)n2)ccc1OC(=O)C(C)(C)C
0.7
CC(C)[C@H](NC(=O)c1ccc(Cn2nnc(-c3ccc(OC(=O)C(C)(C)C)cc3)n2)cc1)C(=O)O
0.13

// data source = patent US5602161A
